# credit: patent US9475815B2

SYSTEM NAME: human FGFR-1 (Homo sapiens, UniProt P11362)
Sequence (P11362 22-822 limits assumed): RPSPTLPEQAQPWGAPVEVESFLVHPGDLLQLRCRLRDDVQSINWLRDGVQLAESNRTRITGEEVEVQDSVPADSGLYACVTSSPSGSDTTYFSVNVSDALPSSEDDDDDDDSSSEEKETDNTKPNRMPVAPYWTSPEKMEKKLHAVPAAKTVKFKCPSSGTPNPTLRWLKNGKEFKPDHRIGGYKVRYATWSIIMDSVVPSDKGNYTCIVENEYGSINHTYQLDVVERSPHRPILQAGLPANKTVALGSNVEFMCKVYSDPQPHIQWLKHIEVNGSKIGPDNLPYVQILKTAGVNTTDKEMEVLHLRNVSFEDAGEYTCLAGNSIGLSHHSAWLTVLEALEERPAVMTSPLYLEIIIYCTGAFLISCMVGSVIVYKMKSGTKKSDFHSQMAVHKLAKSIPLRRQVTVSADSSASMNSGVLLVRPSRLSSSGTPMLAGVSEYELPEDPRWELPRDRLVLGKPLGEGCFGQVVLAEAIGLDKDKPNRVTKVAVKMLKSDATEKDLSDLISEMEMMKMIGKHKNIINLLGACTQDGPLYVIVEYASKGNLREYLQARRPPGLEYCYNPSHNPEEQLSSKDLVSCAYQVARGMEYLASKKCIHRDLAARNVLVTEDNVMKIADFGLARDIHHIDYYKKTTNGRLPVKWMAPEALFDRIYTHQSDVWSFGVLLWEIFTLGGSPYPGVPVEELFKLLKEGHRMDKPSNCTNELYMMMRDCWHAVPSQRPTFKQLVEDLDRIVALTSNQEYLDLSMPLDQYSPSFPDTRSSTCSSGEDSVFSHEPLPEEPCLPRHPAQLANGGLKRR
EXPERIMENT SUMMARY: FGFR-1 high ATP kinase assay (TR-FRET)
Recorded IC50, one value per entry.
EXPERIMENTAL ENDPOINT: IC50 (nM)

INSERT INTO assay_data (compound, experimental_endpoint, measured_result) VALUES
  ('COc1cc(C)cc2cc(-c3cc(CN4CCCN(C)CC4)n4ncnc(N)c34)sc12', 'IC50', 24.9),
  ('COc1cc(C)cc2cc(-c3cc(CN4CCC[C@@H](N)C4)n4ncnc(N)c34)sc12', 'IC50', 16.2),
  ('COc1cc(C)cc2cc(-c3cc(CN4CCNC(C(=O)N(C)C)C4)n4ncnc(N)c34)sc12 (stereo not shown)', 'IC50', 27.3),
  ('CNCCOCc1cc(-c2cc3cc(C)cc(OC)c3s2)c2c(N)ncnn12', 'IC50', 36.1);
